assay: qHTS assay for MDR1-selective chemotherapeutics: Primary screen using the drug-selected MDR subline cells KB-V1; settings: KB-V1 MDR cells viability, CellTiter-Glo, 72 h; series mostly up to 46.1 µM; further: nearly all actives have a fitted effect of over 60% in size
Out of some 400,000 compounds screened, about 13,000 (3.2%) were called active. Roughly 18% stayed inconclusive and do not appear here. The call rests on the fitted dose curve; in most records, active means well fitted cell-killing curve with a large enough effect; inconclusive means small, poorly fitted or top-dose-only effect, or effect the other way; inactive means flat fitted curve, though single readings scatter. The list comes from a sample in which actives are over-represented; it also holds close analogues and randomly drawn compounds.
Please answer using one outcome listed in active, inactive

Below, 3 compounds whose answers are already recorded.
compound="Cc1cc(C)cc(OCC(=O)NC(C)c2ccccc2)c1 (stereo not drawn)" label_value=inactive
compound=COc1ccc(-c2nc(CN3CCC(C(=O)NCCN(CC(C)C)CC(C)C)CC3)c(C)o2)cc1OC label_value=inactive
compound="CC(C)OC(=O)CC(=O)CC(O)c1cccc([N+](=O)[O-])c1 (stereo not drawn)" label_value=inactive

Recorded test outcome, item `COc1cccc(CNC(=O)c2cccnc2Sc2ccc(Cl)cc2)c1`
inactive

Recorded test outcome, item `COc1cccc(OCCn2c(-c3ccc(Br)cc3)nc3ccccc3c2=O)c1`
inactive

Recorded test outcome, item `O=C(NCc1cccnc1)c1cccnc1Sc1ccc(Cl)cc1`
active

---

test: qHTS assay for MDR1-selective chemotherapeutics: Primary screen using the drug-selected MDR subline cells KB-V1; settings: KB-V1 MDR cells viability, CellTiter-Glo, 72 h; series mostly up to 46.1 µM; further: nearly all actives have a fitted effect of over 60% in size
Out of some 400,000 compounds screened, about 13,000 (3.2%) were called active. Inconclusive results (about 18%) are left out. The call rests on the fitted dose curve; in most records, active means well fitted cell-killing curve with a large enough effect; inconclusive means small, poorly fitted or top-dose-only effect, or effect the other way; inactive means flat fitted curve, though single readings scatter. The entries come from a sample that favours actives as a whole.
Please answer using one outcome listed in active, inactive

Below, 4 molecules whose answers are already recorded.
molecule="O=[N+]([O-])c1ccc2[nH]c3c(c2c1)CCCC3O (stereo not given)" label_value=active
molecule=CC(=O)C[C@@H]1OC[C@H](CO)N1S(=O)(=O)c1ccc(C)cc1 label_value=inactive
molecule=CC(C)Cc1ccc(S(=O)(=O)N2CCN(C(=O)c3ccco3)CC2)cc1 label_value=active
molecule=CN1CCN(S(=O)(=O)c2ccc(NC(=O)c3ccco3)cc2)CC1 label_value=inactive

Turning now to a further record.
Recorded test outcome, item `O=C(CNS(=O)(=O)c1ccccc1)N1CCN(C(=O)c2ccco2)CC1`
inactive

---

test: qHTS assay for MDR1-selective chemotherapeutics: Primary screen using the drug-selected MDR subline cells KB-V1; conditions: KB-V1 MDR cells viability, CellTiter-Glo, 72 h; series mostly up to 46.1 µM; further: nearly all actives have a fitted effect of over 60% in size
Hit rate of the full screen: of about 400,000 compounds, about 13,000 (3.2%) were called active. Inconclusive results (about 18%) are left out. Calls come from the whole dose curve; as a rule, active = well fitted cell-killing curve with a large enough effect; inconclusive = small, poorly fitted or top-dose-only effect, or effect the other way; inactive = flat fitted curve, though single readings scatter. For the sample, actives were picked, then their nearest neighbours and some compounds at random.
Please answer using one outcome listed in true (1) for active, false (0) for inactive

Below, 4 compounds whose answers are already recorded.
compound=COc1cccc(CNc2nc3cc(-c4csc5ccccc45)sc3c(=O)n2C)c1 label_value="false (0)"
compound=CN1CCN(c2ccncc2S(=O)(=O)N2CCCC2)CC1 label_value="false (0)"
compound="CC(OC(=O)c1cccnc1Cl)C(=O)NC1CCCCC1 (centres undefined)" label_value="false (0)"
compound=O=C(NC1CC1)c1cccc(Br)c1 label_value="false (0)"

Recorded test outcome, item `O=C(COc1ccccc1F)NNC(=O)c1ccc(N2CCCCC2)c([N+](=O)[O-])c1`
true (1)

Recorded test outcome, item CCC(=O)N1CCc2cc(S(=O)(=O)NC(Cc3ccccc3)C(=O)NCc3ccccc3)ccc21 (centres undefined)
false (0)

Recorded test outcome, item `Cc1ccccc1CNC(=O)CSc1nnc(C)c2c(C)n(-c3ccccc3)nc12`
false (0)

Recorded test outcome, item `O=C(Nc1ccccc1C(F)(F)F)c1nc(S(=O)(=O)Cc2ccccc2F)ncc1Cl`
false (0)

Recorded test outcome, item `COc1ccc2c(c1)C(c1cccs1)=NNC(c1cccnc1)=N2`
false (0)

---

assay: qHTS assay for MDR1-selective chemotherapeutics: Primary screen using the drug-selected MDR subline cells KB-V1; conditions: KB-V1 MDR cells viability, CellTiter-Glo, 72 h; series mostly up to 46.1 µM; further: nearly all actives have a fitted effect of over 60% in size
Among all 400,000 compounds or so, about 13,000 (3.2%) were called active. Another 18% or so got no clear call; they are omitted. Calls come from the whole dose curve; as a rule, active = well fitted cell-killing curve with a large enough effect; inconclusive = small, poorly fitted or top-dose-only effect, or effect the other way; inactive = flat fitted curve, though single readings scatter. The sample as a whole holds a higher share of actives than the screen did.
Please answer using one outcome listed in 1 = active, 0 = inactive

compound=Cc1cccc(S(=O)(=O)N(C)C[C@@H]2OCc3cnnn3CCCC(=O)N([C@H](C)CO)C[C@@H]2C)c1 label_value=0
compound=Cc1ccc(OCC(=O)NNC(=S)NCc2ccccc2)cc1 label_value=0
compound=COc1ccc(C(=O)Nc2cc(C)ccc2NC(=O)COc2ccccc2)cc1 label_value=0
compound=COc1ccc(C(C)C)cc1-c1ccc2nncn2c1 label_value=0
compound="COc1cc(OC)c2c(c1)OC(=O)CC2c1cc(OC)c(OC)c(OC)c1 (stereo not given)" label_value=0

Turning now to a further record.
Recorded test outcome, item CCN1C(=O)c2ccccc2S(=O)c2ccc(C(=O)NCc3ccc(F)cc3)cc21 (stereo not given)
0

---

assay: qHTS assay for MDR1-selective chemotherapeutics: Primary screen using the drug-selected MDR subline cells KB-V1; conditions: KB-V1 MDR cells viability, CellTiter-Glo, 72 h; series mostly up to 46.1 µM; further: nearly all actives have a fitted effect of over 60% in size
Hit rate of the full screen: of about 400,000 compounds, about 13,000 (3.2%) were called active. About 18% were inconclusive and are not listed. This excerpt belongs to a sample that is enriched for actives.
experimental readout: outcome

mol=O=C(Nc1ccc(Cl)cc1)c1csc([C@H]2C[C@H](O)[C@@H](CO)O2)n1 endpoint_value=inactive
mol=CC1=NCCN1S(=O)(=O)c1cccc([N+](=O)[O-])c1 endpoint_value=inactive
mol=O=C(Cn1cc(C(F)(F)F)ccc1=O)N/N=C/c1ccc(Cl)cc1Cl endpoint_value=inactive

---

test: qHTS assay for MDR1-selective chemotherapeutics: Primary screen using the drug-selected MDR subline cells KB-V1; conditions: KB-V1 MDR cells viability, CellTiter-Glo, 72 h; series mostly up to 46.1 µM; further: nearly all actives have a fitted effect of over 60% in size
In all, about 400,000 compounds went through this assay and about 13,000 (3.2%) were called active. Not shown: some 18% with an inconclusive outcome. The sample as a whole holds a higher share of actives than the screen did.
experimental readout: outcome

compound=COc1c(Cl)cc(Cl)cc1C(=O)Nc1cccc2cccnc12 experimental_readout=outcome endpoint_value=inactive
compound=CN1CCN(C(=O)CCc2nc(-c3ccc(Cl)cc3)no2)CC1 experimental_readout=outcome endpoint_value=inactive
compound=FC(F)(F)c1cccc(N/N=C/c2ccccc2)c1 experimental_readout=outcome endpoint_value=inactive
compound=O=C(Nc1nc2ccccc2s1)c1ccc2c(c1)OCO2 experimental_readout=outcome endpoint_value=inactive
compound="COc1ccc(CN2C(=O)C(CC(=O)NCc3cccc4ccccc34)CC(C(=O)N3CCOCC3)=C2C)cc1 (configuration not stated)" experimental_readout=outcome endpoint_value=inactive
compound=N#Cc1ccc[n+](CC(=O)c2ccc(O)c(O)c2)c1 experimental_readout=outcome endpoint_value=inactive

For every record below, what is its outcome?
1. O=C(CCNC(=O)c1ccc(Br)cc1)NCC(c1ccco1)N1CCCCC1 (configuration not stated)
2. O=S(=O)(c1cccc(C(F)(F)F)c1)N1CCN(c2nc(-c3cccs3)nc3ccccc23)CC1

1. inactive
2. inactive

---

assay: qHTS assay for MDR1-selective chemotherapeutics: Primary screen using the drug-selected MDR subline cells KB-V1; conditions: KB-V1 MDR cells viability, CellTiter-Glo, 72 h; series mostly up to 46.1 µM; further: nearly all actives have a fitted effect of over 60% in size
The campaign covered roughly 400,000 compounds. About 13,000 (3.2%) were called active. Inconclusive results (about 18%) are left out. Calls follow the shape of the dose curve; as a rule, active = well fitted cell-killing curve with a large enough effect; inconclusive = small, poorly fitted or top-dose-only effect, or effect the other way; inactive = flat fitted curve, though single readings scatter. The list comes from a sample in which actives are over-represented; it also holds close analogues and randomly drawn compounds.
Please answer using one outcome listed in yes (1) for active, no (0) for inactive

Below, 5 molecules whose answers are already recorded.
molecule=CC1(C)CN(CCc2ccccc2)C(=O)[C@H]1CC(=O)Nc1ccc(Br)cc1 label_value="no (0)"
molecule="Cc1ccc2cccc(NC(=O)C(C)Oc3ccc(C)c(C)c3)c2n1 (stereo not drawn)" label_value="no (0)"
molecule="CCCCCNC(=O)C(c1ccc(OC)cc1)n1c(=O)c(-c2ccccc2)nc2ccccc21 (stereo not drawn)" label_value="no (0)"
molecule=O=C1CC[C@@H](C(=O)N2CSC[C@@H]2C(=O)Nc2ccc(C(F)(F)F)cc2)N1 label_value="no (0)"
molecule="COc1ccc(Cl)cc1NC(=O)c1cccc(N2C(=O)C3CC=CCC3C2=O)c1 (stereo not drawn)" label_value="no (0)"

Recorded test outcome, item CC1(C(=O)NCc2ccc3c(c2)OCO3)CCN1C(=O)Cc1cccs1 (stereo not drawn)
no (0)

Recorded test outcome, item `COc1cccc(-c2cc3nc(NCCOc4ccccc4Cl)n(C)c(=O)c3s2)c1`
no (0)

Recorded test outcome, item COc1ccc(C(=O)OC(C)C(=O)NC2CCCC2)cc1S(=O)(=O)N1CCOCC1 (stereo not drawn)
no (0)

Recorded test outcome, item COc1ccc(OC)c(NC(=O)CSC2=Nc3ccccc3C3=NC(CC(=O)NCCc4ccccc4)C(=O)N23)c1 (stereo not drawn)
no (0)
